assay: Pharmacokinetic study of DMAPE in rats; type: in vivo, Sprague–Dawley rats; conditions: male, Sprague-Dawley; rat plasma, DMAPE 50 mg/kg intravenous
MEASURE: Cmax (ng/mL)

P. COc1cc(C(c2cc(OC)c3c(c2)OCO3)[C@@H]2COC(=O)[C@H]2CN(C)CCO)cc2c1OCO2
Q. C=C1C(=O)OC[C@H]1C(c1cc(OC)c2c(c1)OCO2)c1cc(OC)c2c(c1)OCO2
Exam item: Lab log: flag the item ( P or Q ) with the smaller Cmax figure. Bench note: the answer is the label of the chosen record.
Marked response: Q
(Q: 8630 ng/mL, P: 21700 ng/mL)

* * *

Target: TrxR1 without Sec498 residue (TrxR1 nSec) (Homo sapiens)
Sequence (Q16881 1-497 isoform Q16881-5): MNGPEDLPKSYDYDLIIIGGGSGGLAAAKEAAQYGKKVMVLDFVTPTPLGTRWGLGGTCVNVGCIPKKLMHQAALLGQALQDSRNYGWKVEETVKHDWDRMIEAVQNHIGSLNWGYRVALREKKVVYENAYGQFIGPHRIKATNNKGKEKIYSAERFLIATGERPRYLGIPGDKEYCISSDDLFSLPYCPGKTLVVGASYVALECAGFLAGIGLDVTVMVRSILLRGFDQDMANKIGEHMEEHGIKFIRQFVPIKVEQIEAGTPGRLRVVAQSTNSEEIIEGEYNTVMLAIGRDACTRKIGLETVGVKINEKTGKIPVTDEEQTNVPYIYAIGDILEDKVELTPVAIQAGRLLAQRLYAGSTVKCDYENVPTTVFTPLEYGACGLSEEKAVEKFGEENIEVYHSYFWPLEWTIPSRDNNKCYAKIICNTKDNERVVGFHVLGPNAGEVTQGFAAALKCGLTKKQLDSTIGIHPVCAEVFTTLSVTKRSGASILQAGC
pIC50: −log10 of the molar value.
MEASURE: pIC50

Exam item: Identify measured pIC50 corresponding to C=C1C(=O)OC[C@H]1C(c1cc(OC)c2c(c1)OCO2)c1cc(OC)c2c(c1)OCO2 [PepE, Peperomin E]
Marked response: < 5.10

* * *

test: Pharmacokinetic study of DMAPE in rats; type: in vivo, Sprague–Dawley rats; details: male, Sprague-Dawley, rat, plasma, iv, 50 mg/kg, rat plasma, DMAPE 50 mg/kg intravenous
MEASURE: Tmax (min)
Value expressed in min; do not type the unit.

Exam item: Identify measured Tmax corresponding to C=C1C(=O)OC[C@H]1C(c1cc(OC)c2c(c1)OCO2)c1cc(OC)c2c(c1)OCO2 [PepE, Peperomin E]
Marked response: 12.6

* * *

Assay: Pharmacokinetic study of DMAPE in rats
Assay type: in vivo, Sprague–Dawley rats
Settings: male, Sprague-Dawley, po; rat plasma, DMAPE 50 mg/kg intragastric; read-out: MRT 0-∞
Source text: The UFLC-MS/MS system consisted of a Prominence™ UFLC system (Shimadzu, Kyoto, Japan) coupled with a QTRAP™ 5500 MS/MS system (Applied Biosystems/MDS SCIEX, Foster City, CA, USA) and controlled by the Analyst 1.5.2 software. MS‐grade methanol and acetonitrile were purchased from Merck (Darmstadt, Germany). Ultra‐pure water was generated using a MilliQ™ direct water purification system (Merck–Millipore, Billerica, MA, USA). […]
MEASURE: MRT inf (h)

P. C=C1C(=O)OC[C@H]1C(c1cc(OC)c2c(c1)OCO2)c1cc(OC)c2c(c1)OCO2
Q. COc1cc(C(c2cc(OC)c3c(c2)OCO3)[C@@H]2COC(=O)[C@H]2CN(C)CCO)cc2c1OCO2
Exam item: Lab log: flag the item ( P or Q ) with the smaller MRT inf figure. Bench note: the answer is the label of the chosen record.
Marked response: Q
(Q: 5.29 h, P: 7.75 h)
